experiment: Solubility in water by solution precipitation method (HPLC); assay type: physicochemical; settings: water (2% DMSO), kinetic from dmso stock, from 10 mM DMSO solution, 60 minutes stirring at room temperature, compounds of the present invention
RECORDED ENDPOINT: solubility at 60 min

// known answers, use as guide
INSERT INTO measurements (structure_smiles, recorded_endpoint, result) VALUES
  ('CC(=O)N1CCC[C@@H]1c1cc2[nH]c(-c3cnc(C)cn3)cc2cc1Oc1ccc(S(C)(=O)=O)nc1', 'solubility at 60 min', '> 170 µM'),
  ('CC(=O)N1CCC[C@@H]1c1cc2[nH]c(-c3ccc(C(C)(C)O)cn3)cc2cc1Oc1ccc(C(=O)N2CCC2)nc1', 'solubility at 60 min', '142 µM'),
  ('CC(=O)N1CCC[C@@H]1c1cc2[nH]c(-c3cnc(C(C)(C)O)cn3)cc2cc1Oc1ccc(S(C)(=O)=O)nc1', 'solubility at 60 min', '> 170 µM'),
  ('COCc1ccc(Oc2cc3cc(-c4cnccn4)[nH]c3cc2[C@H]2CCCN2C(C)=O)cn1', 'solubility at 60 min', '> 170 µM');

Now look at this entry.
Query CC(=O)N1CCC[C@@H]1c1cc2[nH]c(-c3cnccn3)cc2cc1Oc1ccc(C(=O)N(C)C)nc1 yields solubility at 60 min of > 170 µM

* * *

molecular target: recombinant human liver GK (Homo sapiens, UniProt P35557); construct: made in house; host or cells: E. coli; experiment: Glucokinase-activating effect (Thio-NADH coupled G6PDH assay); type: biochemical; conditions: OD level of DMSO control = 100%; final glucose concentration 2.5 mM; 30° C.
RECORDED ENDPOINT: Emax (%)
Express your answer in %, writing the number without its unit.

// known answers, use as guide
INSERT INTO assay_data (structure_smiles, recorded_number) VALUES
  ('COCc1ccc(Oc2cc3cc(-c4cnccn4)[nH]c3cc2[C@H]2CCCN2C(C)=O)cn1', 988),
  ('COCc1ccc(Oc2cc3cc(-c4ccc(CO)cn4)[nH]c3cc2[C@H]2CCCN2C(C)=O)cn1', 849);

Now look at this entry.
Query CC(=O)N1CCC[C@@H]1c1cc2[nH]c(-c3ccn(C)n3)cc2cc1Oc1ccc(S(C)(=O)=O)nc1 yields Emax of 943

* * *

We begin with a simple list: items and their reported solubility at 60 min.
experiment: Solubility in water by solution precipitation method (HPLC); type: physicochemical; conditions: water (2% DMSO), kinetic from dmso stock, from 10 mM DMSO solution, 60 minutes stirring at room temperature, compounds of the present invention

// known answers, use as guide
INSERT INTO measurements (structure_smiles, result) VALUES
  ('CC(=O)N1CCC[C@@H]1c1cc2[nH]c(-c3ccc(C(C)(C)O)cn3)cc2cc1Oc1ccc(S(C)(=O)=O)nc1', '152 µM'),
  ('CC(=O)N1CCC[C@@H]1c1cc2[nH]c(-c3cnccn3)cc2cc1Oc1ccc(C(=O)N2CCC2)nc1', '122 µM'),
  ('CC(=O)N1CCC[C@@H]1c1cc2[nH]c(-c3ccccn3)cc2cc1Oc1ccc(OCCO)nc1', '48.6 µM'),
  ('CC(=O)N1CCC[C@@H]1c1cc2[nH]c(-c3cnc(C)cn3)cc2cc1Oc1ccc(CO)nc1', '> 170 µM'),
  ('CCNC(=O)c1ccc(Oc2cc3cc(-c4cnccn4)[nH]c3cc2[C@H]2CCCN2C(C)=O)cn1', '129 µM');

Query CCN(CC)C(=O)c1ccc(Oc2cc3cc(-c4cnccn4)[nH]c3cc2[C@H]2CCCN2C(C)=O)cn1 yields solubility at 60 min of > 170 µM

Query CNC(=O)c1ccc(-c2cc3cc(Oc4ccc(S(C)(=O)=O)nc4)c([C@H]4CCCN4C(C)=O)cc3[nH]2)nc1 yields solubility at 60 min of 112 µM

* * *

We begin with a simple list: items and their reported solubility at 60 min.
experiment: Solubility in water by solution precipitation method (HPLC); format: physicochemical; settings: water (2% DMSO), kinetic from dmso stock, from 10 mM DMSO solution, 60 minutes stirring at room temperature, compounds of the present invention

// known answers, use as guide
INSERT INTO measurements (structure_smiles, result) VALUES
  ('COCc1ccc(Oc2cc3cc(-c4ccc(CO)cn4)[nH]c3cc2[C@H]2CCCN2C(C)=O)cn1', '168 µM'),
  ('CC(=O)N1CCC[C@@H]1c1cc2[nH]c(-c3cnccn3)cc2cc1Oc1ccc(S(C)(=O)=O)nc1', '> 170 µM'),
  ('COCc1ccc(Oc2cc3cc(-c4cnc(CO)cn4)[nH]c3cc2[C@H]2CCCN2C(C)=O)cn1', '> 170 µM'),
  ('COCc1ccc(Oc2cc3cc(-c4ccccn4)[nH]c3cc2[C@H]2CCCN2C(C)=O)cn1', '133 µM'),
  ('CC(=O)N1CCC[C@@H]1c1cc2[nH]c(-c3cnccn3)cc2cc1Oc1ccc(OCCO)nc1', '128 µM'),
  ('CC(=O)N1CCC[C@@H]1c1cc2[nH]c(-c3cnccn3)cc2cc1Oc1ccc(CCO)nc1', '> 170 µM');

Query CC(=O)N1CCC[C@@H]1c1cc2[nH]c(-c3cnc(C(C)(C)O)cn3)cc2cc1Oc1ccc(C(=O)N2CCC2)nc1 yields solubility at 60 min of > 170 µM

Query CC(=O)N1CCC[C@@H]1c1cc2[nH]c(-c3ccc(CO)cn3)cc2cc1Oc1ccc(C(=O)N2CCC2)nc1 yields solubility at 60 min of 77.6 µM

* * *

Target: recombinant human liver GK (Homo sapiens)
Assay: Glucokinase-activating effect (Thio-NADH coupled G6PDH assay)
Conditions: final glucose concentration 2.5 mM; 30° C.
Method: The excellent glucokinase-activating effect of the compounds of formula (I) may be determined by a method described in literature (for example, Diabetes, Vol. 45, pp. 1671-1677, 1996), or in accordance with it. […] After the start of the reaction, the increase in the absorbance at 405 nm was measured for 12 minutes at intervals of 30 seconds, and the increase for the first 5 minutes was used for assessing the compound tested. […]
We begin with a simple list: items and their reported EC50.
Express your answer in nM, writing the number without its unit.

// known answers, use as guide
INSERT INTO results (structure_smiles, measure_unit, recorded_number) VALUES
  ('CC(=O)N1CCC[C@@H]1c1cc2[nH]c(-c3cnc(CO)cn3)cc2cc1Oc1ccc(S(C)(=O)=O)nc1', 'nM', 110),
  ('CC(=O)N1CCC[C@@H]1c1cc2[nH]c(-c3ccn(C)n3)cc2cc1Oc1ccc(S(C)(=O)=O)nc1', 'nM', 180);

Now look at this entry.
Query COCc1ccc(Oc2cc3cc(-c4ccc(CO)cn4)[nH]c3cc2[C@H]2CCCN2C(C)=O)cn1 yields EC50 of 130

* * *

Target: recombinant human liver GK (Homo sapiens, UniProt P35557)
Construct: made in house; host or cells: E. coli
Sequence (P35557 1-466 isoform P35557-2): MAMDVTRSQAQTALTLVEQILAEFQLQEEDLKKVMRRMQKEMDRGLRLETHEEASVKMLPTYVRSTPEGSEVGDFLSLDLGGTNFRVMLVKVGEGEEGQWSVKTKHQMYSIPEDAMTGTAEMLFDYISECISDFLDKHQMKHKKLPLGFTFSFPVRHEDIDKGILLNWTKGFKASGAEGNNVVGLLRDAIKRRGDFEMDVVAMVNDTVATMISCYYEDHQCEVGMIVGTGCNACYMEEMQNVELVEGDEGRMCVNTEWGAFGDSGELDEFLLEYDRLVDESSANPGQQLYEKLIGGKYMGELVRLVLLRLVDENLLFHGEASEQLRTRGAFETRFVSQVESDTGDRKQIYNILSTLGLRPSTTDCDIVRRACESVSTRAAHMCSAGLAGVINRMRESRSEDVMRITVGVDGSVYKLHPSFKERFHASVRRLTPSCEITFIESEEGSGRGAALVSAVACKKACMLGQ
Assay: Glucokinase-activating effect (Thio-NADH coupled G6PDH assay)
Type: biochemical
Conditions: OD level of DMSO control = 100%; final glucose concentration 2.5 mM; 30° C.
RECORDED ENDPOINT: Emax
Hi, when you answer, please include the unit after the number. Thanks!

INSERT INTO results (structure_smiles, result) VALUES
  ('CCNC(=O)c1ccc(Oc2cc3cc(-c4cnccn4)[nH]c3cc2[C@H]2CCCN2C(C)=O)cn1', '942%');

Query CC(=O)N1CCC[C@@H]1c1cc2[nH]c(-c3cnc(C)cn3)cc2cc1Oc1ccc(OCCO)nc1 yields Emax of 995%

Query CCN(CC)C(=O)c1ccc(Oc2cc3cc(-c4cnccn4)[nH]c3cc2[C@H]2CCCN2C(C)=O)cn1 yields Emax of 957%

* * *

assay: Solubility in water by solution precipitation method (HPLC); type: physicochemical; details: water (2% DMSO), kinetic from dmso stock, from 10 mM DMSO solution, 60 minutes stirring at room temperature, compounds of the present invention
We begin with a simple list: items and their reported solubility at 60 min.

// known answers, use as guide
INSERT INTO assay_data (structure_smiles, recorded_endpoint, result) VALUES
  ('CC(=O)N1CCC[C@@H]1c1cc2[nH]c(-c3cnccn3)cc2cc1Oc1ccc(C(=O)N(C)CCO)nc1', 'solubility at 60 min', '> 170 µM'),
  ('CC(=O)N1CCC[C@@H]1c1cc2[nH]c(-c3cnc(CO)cn3)cc2cc1Oc1ccc(OCCO)nc1', 'solubility at 60 min', '> 170 µM');

Query CC(=O)N1CCC[C@@H]1c1cc2[nH]c(-c3ccc(C(C)(C)O)cn3)cc2cc1Oc1ccc(CO)nc1 yields solubility at 60 min of > 170 µM
